Source: the domain aggregation screens of Martell et al. (2025)

# Test name: soluble fraction after stress (log2 fold change); higher = more stays soluble; pooled small domains, quantitative proteomics
# Measurement setup: stress: pH 4
Value type: soluble fraction (log2)
Number only, no unit.

Some entries whose results are on file:
1) HMVVYFGGPVMLERGIVLHTPDISTKGTINVSDDFALTAHKEILDNINKDTSSLQFKLAIGH : -0.337
2) HMQNYLEVLRLHELGMGQRKIAQQVHTSRDTIRKIIAIAENQGLNYSNLIGKTDNELSKVFG : 0.0958
3) HMDIRVAHVDDDMSFGEAFAQARSQVGPGGVFEWHGKLYGTYTAEEWASMSPAERSQYQQAVFN : 0.105
4) HMEVLTEPKVQSIDTHGEKSTFVIESPNPLQPDEIAKLVGADGISVRVDRTWLKSHRDSTWTYSILTVS : 0.163
5) HMPPPTLVESAYNHLKADIISSYLKPDEKINLKDLSQRYQVSETPIKQALNRLISEGLIISVPRKGMWVH : 0.065
6) HMAVSPEEQKKRIIELFRNRNEVSFKEIFDLPTKGHFVITLLAVLDLARQQIVIMEQLENEGIIKFTKGA : -0.232

I'd like to know its soluble fraction (log2). The sequence in question is HMRYVVQVATFSSKNNAIRAADDLAGFVVVSNGYYRVRTGPYADRGEANAALAKARKAGYTDAFVDTS 0.0704

// repeat for HMAKNYYEILGLKSDATLPEIKKAFKKLSKKFHPDKNRDDDGYFESMFKSINEAYQVLIDEDKRATFDSHH and report 0.166
